- SYSTEM UNDER TEST: Guanlyate kinase (UniProt Q0TBG1)
- Sequence (Q0TBG1 whole entry): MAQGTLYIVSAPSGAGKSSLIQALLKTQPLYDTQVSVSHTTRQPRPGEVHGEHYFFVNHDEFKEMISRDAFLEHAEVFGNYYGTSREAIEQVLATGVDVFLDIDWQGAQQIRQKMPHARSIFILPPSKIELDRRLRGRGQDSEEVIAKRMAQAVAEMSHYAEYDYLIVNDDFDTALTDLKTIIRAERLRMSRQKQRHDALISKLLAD
- RUN DESCRIPTION: relative enzymatic activity vs untreated control (fraction); higher = less inhibition
- CONDITION PARAMETERS: 100 µM; incubation time: 2 h at 37 C
MEASUREMENT TYPE: relative enzymatic activity
Could you keep your reply to the number by itself?

Entry "CCCCCCCCCCCCCCCC[n+]1ccccc1.[Cl-]" — recorded relative enzymatic activity = 0.2

Entry "[O-][n+]1ccccc1[S][Zn][S]c1cccc[n+]1[O-]" — recorded relative enzymatic activity = 1.06

Entry "O=[N+]([O-])C(Br)(CO)CO" — recorded relative enzymatic activity = 0.943

Entry "CCn1cc(C(=O)[O-])c(=O)c2cc3c(cc21)OCO3.[K+]" — recorded relative enzymatic activity = 0.892

Entry O=C1C=C2C(=CCOC2O)O1 (stereo not given) — recorded relative enzymatic activity = 1.09

Entry "O=S(=O)(O)O.Oc1cccc2cccnc12" — recorded relative enzymatic activity = 0.981

Entry "CN1C(=O)[C@]23CC4=CC=C[C@H](O)[C@H]4N2C(=O)[C@@]1(CO)SS3" — recorded relative enzymatic activity = 0.947

Entry CNC1C(O)C(OC2C(N)CC(N)C(OC3OC(C(C)O)C(O)C(O)C3N)C2O)OCC1(C)O (stereo not given) — recorded relative enzymatic activity = 0.936

Entry "CN[C@H]1C[C@@H](N)[C@H](O)[C@@H](O[C@@H]2O[C@H](CO)[C@H](O)[C@@H]3O[C@@]4(O[C@H]23)O[C@H]([C@@H](N)CO)[C@H](O)[C@H](O)[C@H]4O)[C@@H]1O" — recorded relative enzymatic activity = 0.933

Entry "CCCCCCCCCCCCCCCC[n+]1ccccc1" — recorded relative enzymatic activity = 0.0415

###

- Tested on: RNA polymerase
- RUN DESCRIPTION: relative enzymatic activity vs untreated control (fraction); higher = less inhibition
- CONDITION PARAMETERS: 100 µM; incubation time: 2 h at 37 C
MEASUREMENT TYPE: relative enzymatic activity
Could you keep your reply to the number by itself?

Entry "CCCCCCCCCCCCCCCC[n+]1ccccc1" — recorded relative enzymatic activity = 0.617

Entry "O=[N+]([O-])c1ccc(N(CCO)CCO)c2c1no[n+]2[O-]" — recorded relative enzymatic activity = 0.679

Entry "Cn1ncnc2c(=O)n(C)c(=O)nc1-2" — recorded relative enzymatic activity = 0.587

###

- SYSTEM UNDER TEST: Guanlyate kinase (UniProt Q0TBG1)
- RUN DESCRIPTION: relative enzymatic activity vs untreated control (fraction); higher = less inhibition
- CONDITION PARAMETERS: 100 µM; incubation time: 2 h at 37 C
MEASUREMENT TYPE: relative enzymatic activity
Could you keep your reply to the number by itself?

Entry "Cc1nc2c(=O)n(C)c(=O)nc-2n(C)n1" — recorded relative enzymatic activity = 0.881

Entry "O=[N+]([O-])c1ccc(N(CCO)CCO)c2c1no[n+]2[O-]" — recorded relative enzymatic activity = 0.448

Entry "CC(=O)Oc1ccc(Cl)c2cccnc12" — recorded relative enzymatic activity = 0.892

Entry "Cc1c(N)nc([C@H](CC(N)=O)NC[C@@H](N)C(N)=O)nc1C(=O)N[C@H](C(=O)N[C@@H](C)[C@H](O)[C@@H](C)C(=O)N[C@@H](C(=O)NCCc1nc(-c2nc(C(=O)NCCC[S+](C)C)cs2)cs1)[C@@H](C)O)[C@@H](O[C@H]1O[C@H](CO)[C@H](O)[C@@H](O)[C@H]1O[C@H]1O[C@H](CO)[C@@H](O)[C@H](OC(N)=O)[C@@H]1O)c1cnc[nH]1" — recorded relative enzymatic activity = 1.03

Entry "Cc1c(N)nc([C@H](CC(N)=O)NC[C@@H](N)C(N)=O)nc1C(=O)N[C@H](C(=O)N[C@@H](C)[C@H](O)[C@@H](C)C(=O)N[C@@H](C(=O)NCCc1nc(-c2nc(C(=O)NCCC[S+](C)C)cs2)cs1)[C@@H](C)O)[C@@H](O[C@H]1O[C@H](CO)[C@H](O)[C@@H](O)[C@H]1O[C@H]1O[C@H](CO)[C@@H](O)[C@H](OC(N)=O)[C@@H]1O)c1c[nH]cn1" — recorded relative enzymatic activity = 0.96
